measured_target: Src tyrosine kinase
test: cell-based or functional assay
Where no end group is shown, it is not given here. [ ]: non-standard residue; d: D form. Phe(NH2) = aminophenylalanine; Phe(NO2) = nitrophenylalanine
observable: IC50, inhibitory potency (Src kinase assay, polyE4Y phosphorylation)

Known IC50, inhibitory potency (Src kinase assay, polyE4Y phosphorylation) results, listed for orientation:
> print(dat)
                                     binder    result
1      YI[Phe(NO2)]GSFK [YIF(NO2)GSFK (86)]  > 100 µM
2  Ac-YI[Phe(NO2)]GSFK [Ac-YIF(NO2)GSFK (87)]  > 100 µM
3  Ac-CIYKY[Phe(NH2)] [Ac-CIYKYF(NH2) (68)]  > 700 µM

Consider the additional binder presented here.
Memo: YIYGSFK [YIYGSFK (85)] , reported IC50, inhibitory potency (Src kinase assay, polyE4Y phosphorylation): > 100 µM
